- TEST PROTOCOL: Pharmacokinetics in C57BL/6J mice
- Assay type: in vivo
- CONDITION DESCRIPTION: mouse, plasma, ip, 10 mg/kg i.p., read-out: t1/2 (converted)
MEASURED METRIC: half-life (h)
Field: numeric (h). Do not append units.

Prompt: For the compound shown here, Cc1ncsc1-c1ccc([C@H](C)NC(=O)[C@@H]2C[C@@H](O)CN2C(=O)[C@@H](NC(=O)CCCCCCCCCCC(=O)NCCCn2cc(-c3ccc4c(c3)CCN4C(=O)Cc3cccc(OC(F)(F)F)c3)c3c(N)ncnc32)C(C)(C)C)cc1 [LD4172] , give the reported half-life.
Response: 1.5

Source of measurements: paper PMC11042424
